Ref: ChEMBL document CHEMBL3885861

- Organism: Rattus norvegicus
- MEASUREMENT NOTES: Open TG-GATES - Regimen: Single
- Format: toxicity, organism-based, Sprague-Dawley
- Design: regimen Single, gender Male, age 6 weeks
- CONDITION LABEL: in vivo, po, 0 mg/kg, 9 h, tissue Blood, route gavage, dose level Control
Would you mind telling me the reported PT of each entry?
Give the quantity in s, number only.

According to the records, this compound "CCN(CC)N=O" displays PT of 12

According to the records, this compound "CC[C@@H](CO)NCCN[C@@H](CC)CO" displays PT of 16.5

According to the records, this compound CC(=O)N1CCN(c2ccc(OCC3COC(Cn4ccnc4)(c4ccc(Cl)cc4Cl)O3)cc2)CC1 (configuration not stated) displays PT of 16.4

According to the records, this compound CC(C)Cc1ccc(C(C)C(=O)O)cc1 (configuration not stated) displays PT of 15.9

According to the records, this compound CC(CCc1ccccc1)NCC(O)c1ccc(O)c(C(N)=O)c1 (configuration not stated) displays PT of 13.5

According to the records, this compound "O=C(O)COc1nn(Cc2ccccc2)c2ccccc12" displays PT of 11.8

According to the records, this compound "CC(=O)Nc1ccc2c(c1)Cc1ccccc1-2" displays PT of 12

* * *

- Species on record: Rattus norvegicus
- MEASUREMENT NOTES: Open TG-GATES - Regimen: Daily Repeat
- Format: toxicity, organism-based, Sprague-Dawley
- Set-up: regimen Daily Repeat, gender Male, age 6 weeks
- CONDITION LABEL: in vivo, po, 0 mg/kg, 72 h, tissue Plasma, route gavage, dose level Control, time 3 day
Would you mind telling me the reported RALB of each entry?
Give the quantity in g/dL, number only.

According to the records, this compound O=C(O)COc1nn(Cc2ccccc2)c2ccccc12 [BENDAZAC] displays RALB of 3.9

According to the records, this compound CC(N)=O [ACETAMIDE] displays RALB of 2.8

According to the records, this compound CC(=O)N1CCN(c2ccc(OCC3COC(Cn4ccnc4)(c4ccc(Cl)cc4Cl)O3)cc2)CC1 (stereo not drawn) [KETOCONAZOLE] displays RALB of 3

According to the records, this compound CC(C)Cc1ccc(C(C)C(=O)O)cc1 (stereo not drawn) [IBUPROFEN] displays RALB of 3

According to the records, this compound CC[C@@H](CO)NCCN[C@@H](CC)CO [ETHAMBUTOL] displays RALB of 3

According to the records, this compound CC(=O)Nc1ccc2c(c1)Cc1ccccc1-2 [2-ACETYLAMINOFLUORENE] displays RALB of 3.6

According to the records, this compound CC(CCc1ccccc1)NCC(O)c1ccc(O)c(C(N)=O)c1 (stereo not drawn) [LABETALOL] displays RALB of 2.7

According to the records, this compound CCN(CC)N=O [N-NITROSODIETHYLAMINE] displays RALB of 3.4

* * *

Would you mind telling me the reported Neu of each entry?
- Species: Rattus norvegicus
- MEASUREMENT NOTES: Open TG-GATES - Regimen: Single
- Assay type: toxicity, organism-based, Sprague-Dawley
- Design: regimen Single, gender Male, age 6 weeks
- CONDITION LABEL: in vivo, po, 0 mg/kg, 9 h, tissue Blood, route gavage, dose level Control
# output: number + unit

According to the records, this compound CC(=O)Nc1ccc2c(c1)Cc1ccccc1-2 [2-ACETYLAMINOFLUORENE] displays Neu of 19.4%

According to the records, this compound CC(CCc1ccccc1)NCC(O)c1ccc(O)c(C(N)=O)c1 (configuration not stated) [LABETALOL] displays Neu of 15.4%

According to the records, this compound O=C(O)COc1nn(Cc2ccccc2)c2ccccc12 [BENDAZAC] displays Neu of 12.8%

According to the records, this compound CC[C@@H](CO)NCCN[C@@H](CC)CO [ETHAMBUTOL] displays Neu of 13.2%

According to the records, this compound CC(C)Cc1ccc(C(C)C(=O)O)cc1 (configuration not stated) [IBUPROFEN] displays Neu of 17%

According to the records, this compound CCN(CC)N=O [N-NITROSODIETHYLAMINE] displays Neu of 19.2%

According to the records, this compound CC(=O)N1CCN(c2ccc(OCC3COC(Cn4ccnc4)(c4ccc(Cl)cc4Cl)O3)cc2)CC1 (configuration not stated) [KETOCONAZOLE] displays Neu of 21.4%

* * *

- Species on record: Rattus norvegicus
- MEASUREMENT NOTES: Open TG-GATES - Regimen: Daily Repeat
- Format: toxicity, organism-based, Sprague-Dawley
- Set-up: regimen Daily Repeat, gender Male, age 6 weeks
- CONDITION LABEL: in vivo, po, 0 mg/kg, […], tissue Blood, route gavage, dose level Control, time 14 day
QUANTITY NAME: Fbg (mg/dL)
Give the quantity in mg/dL, number only.

According to the records, this compound "CC(=O)Nc1ccc2c(c1)Cc1ccccc1-2" displays Fbg of 225.8

According to the records, this compound "O=C(O)COc1nn(Cc2ccccc2)c2ccccc12" displays Fbg of 236

According to the records, this compound "CCN(CC)N=O" displays Fbg of 216.6

According to the records, this compound "CC[C@@H](CO)NCCN[C@@H](CC)CO" displays Fbg of 321.6

According to the records, this compound CC(=O)N1CCN(c2ccc(OCC3COC(Cn4ccnc4)(c4ccc(Cl)cc4Cl)O3)cc2)CC1 (configuration not stated) displays Fbg of 298

According to the records, this compound CC(C)Cc1ccc(C(C)C(=O)O)cc1 (configuration not stated) displays Fbg of 355.2

According to the records, this compound CC(CCc1ccccc1)NCC(O)c1ccc(O)c(C(N)=O)c1 (configuration not stated) displays Fbg of 271.4

* * *

- Species on record: Rattus norvegicus
- MEASUREMENT NOTES: Open TG-GATES - Regimen: Single
- Format: toxicity, organism-based, Sprague-Dawley
- Design: regimen Single, gender Male, age 6 weeks
- CONDITION LABEL: in vivo, po, 0 mg/kg, 3 h, tissue Plasma, route gavage, dose level Control
Would you mind telling me the reported GLC of each entry?
Give the quantity in mg/dL, number only.

According to the records, this compound "CCN(CC)N=O" displays GLC of 194.2

According to the records, this compound CC(CCc1ccccc1)NCC(O)c1ccc(O)c(C(N)=O)c1 (configuration not stated) displays GLC of 184

According to the records, this compound "CC[C@@H](CO)NCCN[C@@H](CC)CO" displays GLC of 192.4

According to the records, this compound CC(C)Cc1ccc(C(C)C(=O)O)cc1 (configuration not stated) displays GLC of 183

According to the records, this compound "O=C(O)COc1nn(Cc2ccccc2)c2ccccc12" displays GLC of 199.4

According to the records, this compound CC(=O)N1CCN(c2ccc(OCC3COC(Cn4ccnc4)(c4ccc(Cl)cc4Cl)O3)cc2)CC1 (configuration not stated) displays GLC of 175.4

According to the records, this compound "CC(=O)Nc1ccc2c(c1)Cc1ccccc1-2" displays GLC of 194.8

* * *

- Organism: Rattus norvegicus
- MEASUREMENT NOTES: Open TG-GATES - Regimen: Single
- Format: toxicity, organism-based, Sprague-Dawley
- Parameters: regimen Single, gender Male, age 6 weeks
- CONDITION LABEL: in vivo, po, 0 mg/kg, 9 h, tissue Plasma, route gavage, dose level Control
Please note: Met applies when ALP is 1000 IU/L or greater, and Not met applies otherwise.

*Q* Could you verify whether the entry "CC(=O)Nc1ccc2c(c1)Cc1ccccc1-2" shows ALP of no less than 1000 IU/L?
*A* Not met

*Q* Could you verify whether the entry CC(C)Cc1ccc(C(C)C(=O)O)cc1 (configuration not stated) shows ALP of no less than 1000 IU/L?
*A* Met

*Q* Could you verify whether the entry "O=C(O)COc1nn(Cc2ccccc2)c2ccccc12" shows ALP of no less than 1000 IU/L?
*A* Not met

*Q* Could you verify whether the entry CC(=O)N1CCN(c2ccc(OCC3COC(Cn4ccnc4)(c4ccc(Cl)cc4Cl)O3)cc2)CC1 (configuration not stated) shows ALP of no less than 1000 IU/L?
*A* Met

*Q* Could you verify whether the entry CC(CCc1ccccc1)NCC(O)c1ccc(O)c(C(N)=O)c1 (configuration not stated) shows ALP of no less than 1000 IU/L?
*A* Met

*Q* Could you verify whether the entry "CC[C@@H](CO)NCCN[C@@H](CC)CO" shows ALP of no less than 1000 IU/L?
*A* Met

*Q* Could you verify whether the entry "CCN(CC)N=O" shows ALP of no less than 1000 IU/L?
*A* Not met

* * *

- Species: Rattus norvegicus
- MEASUREMENT NOTES: Open TG-GATES - Regimen: Single
- Assay type: toxicity, organism-based, Sprague-Dawley
- Set-up: regimen Single, gender Male, age 6 weeks
- CONDITION LABEL: in vivo, po, 0 mg/kg, 24 h, tissue Blood, route gavage, dose level Control
QUANTITY NAME: Ht (%)
Give the quantity in %, number only.

According to the records, this molecule CC(C)Cc1ccc(C(C)C(=O)O)cc1 (configuration not stated) displays Ht of 38.6

According to the records, this molecule "O=C(O)COc1nn(Cc2ccccc2)c2ccccc12" displays Ht of 39.7

According to the records, this molecule CC(=O)N1CCN(c2ccc(OCC3COC(Cn4ccnc4)(c4ccc(Cl)cc4Cl)O3)cc2)CC1 (configuration not stated) displays Ht of 38.9

According to the records, this molecule "CCN(CC)N=O" displays Ht of 39.6

According to the records, this molecule CC(CCc1ccccc1)NCC(O)c1ccc(O)c(C(N)=O)c1 (configuration not stated) displays Ht of 38

According to the records, this molecule "CC(=O)Nc1ccc2c(c1)Cc1ccccc1-2" displays Ht of 40.1

According to the records, this molecule "CC[C@@H](CO)NCCN[C@@H](CC)CO" displays Ht of 39.5
